Ref: ChEMBL document CHEMBL6092168

Target: Dipeptidyl peptidase 1 (Homo sapiens, UniProt P53634)
Sequence (P53634 25-134 limits assumed): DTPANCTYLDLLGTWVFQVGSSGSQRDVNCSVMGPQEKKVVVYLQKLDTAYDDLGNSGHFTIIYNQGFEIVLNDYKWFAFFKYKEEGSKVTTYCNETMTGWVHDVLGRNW
Sequence (P53634 231-394 limits assumed): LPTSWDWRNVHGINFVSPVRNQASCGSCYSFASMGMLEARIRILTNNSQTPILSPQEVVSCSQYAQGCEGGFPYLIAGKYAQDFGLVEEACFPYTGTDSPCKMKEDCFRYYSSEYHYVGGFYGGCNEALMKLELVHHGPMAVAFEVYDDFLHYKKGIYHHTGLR
Sequence (P53634 395-463 limits assumed): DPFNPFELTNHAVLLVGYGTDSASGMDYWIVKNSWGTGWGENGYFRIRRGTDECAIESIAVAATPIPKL
Assay: Inhibition of human recombinant Cathepsin C using Gly-Phe-AFC as substrate preincubated for 3 hrs followed by substrate addition and measured after 1 hr by fluorescence based multifunctional microplate reader analysis
pIC50: −log10 of the molar value.
experimental.endpoint: pIC50

O=C(Nc1ccc(O)cc1)c1cccc(-c2ccc(CN3CCOCC3)cc2)c1 :: 6.62

(P) O=C(Nc1ccc2ccccc2c1)c1cccc(-c2ccc(CN3CCOCC3)cc2)n1
(Q) CC(=O)Nc1ccccc1NC(=O)c1cccc(-c2ccc(CN3CCOCC3)cc2)c1
Q) Could you check which of P and Q has a smaller value for pIC50? Bench note: the answer is the label of the chosen record.
A) Q
(Q: 6.05, P: 6.52)
